So I've got a bunch of molecules here, and I need their Efficacy values.
experimental system: Gonadotropin-releasing hormone receptor (Homo sapiens) (UniProt P30968)
Sequence (whole entry): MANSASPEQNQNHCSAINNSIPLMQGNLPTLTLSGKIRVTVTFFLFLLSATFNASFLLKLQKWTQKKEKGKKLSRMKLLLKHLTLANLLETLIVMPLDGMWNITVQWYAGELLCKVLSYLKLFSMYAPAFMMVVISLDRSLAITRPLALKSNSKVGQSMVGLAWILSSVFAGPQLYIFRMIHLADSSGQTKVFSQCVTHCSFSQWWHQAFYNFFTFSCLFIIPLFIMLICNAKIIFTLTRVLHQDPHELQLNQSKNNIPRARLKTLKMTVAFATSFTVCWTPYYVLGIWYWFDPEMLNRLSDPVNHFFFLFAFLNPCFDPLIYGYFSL
assay: Antagonist activity at human recombinant GnRHR expressed in CHOK1 cells assessed as reduction in luminescence signal at 10 uM by luciferase reporter gene assay
Format: functional, cell-based
cond: CHO-K1
The response must be a number in % with no trailing unit.

Enter recorded Efficacy with Gonadotropin-releasing hormone receptor (Homo sapiens) (UniProt P30968) for CCNC(=O)Nc1ccc(-c2nc3n(Cc4c(F)cccc4F)cc(C(=O)OCC)c(=O)n3c2CN(CC(=O)NCC(=O)NCC#Cc2ccccc2)Cc2ccccc2)cc1 here. 95

State Efficacy (Gonadotropin-releasing hormone receptor (Homo sapiens) (UniProt P30968)) of CCNC(=O)Nc1ccc(-c2nc3n(Cc4c(F)cccc4F)cc(C(=O)OCC)c(=O)n3c2CN(CC(=O)N[C@H](C(=O)NCC#Cc2ccccc2)C(C)C)Cc2ccccc2)cc1 . 60

Report the value of Efficacy obtained on Gonadotropin-releasing hormone receptor (Homo sapiens) (UniProt P30968) for CCNC(=O)Nc1ccc(-c2nc3n(Cc4c(F)cccc4F)cc(C(=O)OCC)c(=O)n3c2CN(CC(=O)N[C@@H](C)C(=O)NCC#Cc2ccccc2)Cc2ccccc2)cc1 . 61

Name the value of Efficacy reported for CCNC(=O)Nc1ccc(-c2nc3n(Cc4c(F)cccc4F)cc(C(=O)OCC)c(=O)n3c2CN(CC(=O)NCC(=O)NCC#Cc2ccc(C#CCNC(=O)CNC(=O)CN(Cc3ccccc3)Cc3c(-c4ccc(NC(=O)NCC)cc4)nc4n(Cc5c(F)cccc5F)cc(C(=O)OCC)c(=O)n34)cc2)Cc2ccccc2)cc1 when tested on Gonadotropin-releasing hormone receptor (Homo sapiens) (UniProt P30968). 59

Fetch value of Efficacy on Gonadotropin-releasing hormone receptor (Homo sapiens) (UniProt P30968) for CCNC(=O)Nc1ccc(-c2nc3n(Cc4c(F)cccc4F)cc(C(=O)OCC)c(=O)n3c2CN(CC(=O)N[C@H](C(=O)NCC#Cc2ccc(C#CCNC(=O)[C@@H](NC(=O)CN(Cc3ccccc3)Cc3c(-c4ccc(NC(=O)NCC)cc4)nc4n(Cc5c(F)cccc5F)cc(C(=O)OCC)c(=O)n34)C(C)C)cc2)C(C)C)Cc2ccccc2)cc1 . 34

Specify the recorded Efficacy for CCNC(=O)Nc1ccc(-c2nc3n(Cc4c(F)cccc4F)cc(C(=O)OCC)c(=O)n3c2CN(CC(=O)N[C@@H](C)C(=O)NCC#Cc2cccc(C#CCNC(=O)[C@H](C)NC(=O)CN(Cc3ccccc3)Cc3c(-c4ccc(NC(=O)NCC)cc4)nc4n(Cc5c(F)cccc5F)cc(C(=O)OCC)c(=O)n34)c2)Cc2ccccc2)cc1 , system: Gonadotropin-releasing hormone receptor (Homo sapiens) (UniProt P30968). 14

Report measured Efficacy on Gonadotropin-releasing hormone receptor (Homo sapiens) (UniProt P30968); entry: CCNC(=O)Nc1ccc(-c2nc3n(Cc4c(F)cccc4F)cc(C(=O)OCC)c(=O)n3c2CN(CC(=O)N2CCC[C@H]2C(=O)NCC#Cc2ccc(C#CCNC(=O)[C@@H]3CCCN3C(=O)CN(Cc3ccccc3)Cc3c(-c4ccc(NC(=O)NCC)cc4)nc4n(Cc5c(F)cccc5F)cc(C(=O)OCC)c(=O)n34)cc2)Cc2ccccc2)cc1 65

GET Efficacy where system = Gonadotropin-releasing hormone receptor (Homo sapiens) (UniProt P30968) and item = CCNC(=O)Nc1ccc(-c2nc3n(Cc4c(F)cccc4F)cc(C(=O)OCC)c(=O)n3c2CN(CC(=O)NCCCC(=O)NCC#Cc2ccccc2)Cc2ccccc2)cc1 96

Recall the reported Efficacy of CCNC(=O)Nc1ccc(-c2nc3n(Cc4c(F)cccc4F)cc(C(=O)OCC)c(=O)n3c2CN(CC(=O)NCCCC(=O)NCC#Cc2cccc(C#CCNC(=O)CCCNC(=O)CN(Cc3ccccc3)Cc3c(-c4ccc(NC(=O)NCC)cc4)nc4n(Cc5c(F)cccc5F)cc(C(=O)OCC)c(=O)n34)c2)Cc2ccccc2)cc1 when tested on Gonadotropin-releasing hormone receptor (Homo sapiens) (UniProt P30968). 57

Given CCNC(=O)Nc1ccc(-c2nc3n(Cc4c(F)cccc4F)cc(C(=O)OCC)c(=O)n3c2CN(CC(=O)N2CCC(C(=O)NCC#Cc3cccc(C#CCNC(=O)C4CCN(C(=O)CN(Cc5ccccc5)Cc5c(-c6ccc(NC(=O)NCC)cc6)nc6n(Cc7c(F)cccc7F)cc(C(=O)OCC)c(=O)n56)CC4)c3)CC2)Cc2ccccc2)cc1 , report its Efficacy on Gonadotropin-releasing hormone receptor (Homo sapiens) (UniProt P30968). 86

// fetch Efficacy; item: CCNC(=O)Nc1ccc(-c2nc3n(Cc4c(F)cccc4F)cc(C(=O)OCC)c(=O)n3c2CN(CC(=O)N2CCC(C(=O)NCC#Cc3ccccc3)CC2)Cc2ccccc2)cc1 ; system: Gonadotropin-releasing hormone receptor (Homo sapiens) (UniProt P30968) 82

State, for Gonadotropin-releasing hormone receptor (Homo sapiens) (UniProt P30968), measured Efficacy of the molecule listed here: CCNC(=O)Nc1ccc(-c2nc3n(Cc4c(F)cccc4F)cc(C(=O)OCC)c(=O)n3c2CN(CC(=O)NCCCC(=O)NCC#Cc2ccc(C#CCNC(=O)CCCNC(=O)CN(Cc3ccccc3)Cc3c(-c4ccc(NC(=O)NCC)cc4)nc4n(Cc5c(F)cccc5F)cc(C(=O)OCC)c(=O)n34)cc2)Cc2ccccc2)cc1 85

GET Efficacy | system: Gonadotropin-releasing hormone receptor (Homo sapiens) (UniProt P30968) | item: CCNC(=O)Nc1ccc(-c2nc3n(Cc4c(F)cccc4F)cc(C(=O)OCC)c(=O)n3c2CN(CC(=O)NCC(=O)NCC#Cc2cccc(C#CCNC(=O)CNC(=O)CN(Cc3ccccc3)Cc3c(-c4ccc(NC(=O)NCC)cc4)nc4n(Cc5c(F)cccc5F)cc(C(=O)OCC)c(=O)n34)c2)Cc2ccccc2)cc1 9

Please report Efficacy with Gonadotropin-releasing hormone receptor (Homo sapiens) (UniProt P30968) for item CCNC(=O)Nc1ccc(-c2nc3n(Cc4c(F)cccc4F)cc(C(=O)OCC)c(=O)n3c2CN(CC(=O)N[C@@H](C)C(=O)NCC#Cc2ccc(C#CCNC(=O)[C@H](C)NC(=O)CN(Cc3ccccc3)Cc3c(-c4ccc(NC(=O)NCC)cc4)nc4n(Cc5c(F)cccc5F)cc(C(=O)OCC)c(=O)n34)cc2)Cc2ccccc2)cc1 . 52

For Gonadotropin-releasing hormone receptor (Homo sapiens) (UniProt P30968), give Efficacy of the listed molecule: CCNC(=O)Nc1ccc(-c2nc3n(Cc4c(F)cccc4F)cc(C(=O)OCC)c(=O)n3c2CN(CC(=O)N2CCC[C@H]2C(=O)NCC#Cc2ccccc2)Cc2ccccc2)cc1 89
